Cited source: ChEMBL document CHEMBL4130391

- System: A549
- Assay comment: Antiproliferative activity against human A549 cells after 72 hrs by MTT assay
- Type: functional, cell-based
- Applied conditions: A549, 72 h
pIC50: −log10 of the molar value.
Quantity: pIC50

(a) COC(=O)c1ccc2c(c1)NC(=O)/C2=C(\Nc1ccc2[nH]c(CN(C)C)cc2c1)c1ccccc1
(b) COC(=O)c1ccc2c(c1)NC(=O)/C2=C(\Nc1ccc2[nH]cc(CN(C)C)c2c1)c1ccccc1
Q. # return whichever of a and b has the smaller pIC50 State your choice using its label.
A. a

###

- Tested on: A549
- Assay comment: Antiproliferative activity against human A549 cells after 72 hrs by MTT assay
- Format: functional, cell-based
- Applied conditions: A549, 72 h
Quantity: IC50 (µM)

Below are worked cases with known answers.
- Chem smiles: "COC(=O)c1ccc2c(c1)NC(=O)/C2=C(\\Nc1ccc2c(c1)c(CN(C)C)cn2C(C)C)c1ccccc1"
  Unit of measure: "µM"
  IC50: 4.32
- Chem smiles: "CCn1cc(CN(C)C)c2cc(N/C(=C3\\C(=O)Nc4cc(C(=O)OC)ccc43)c3ccccc3)ccc21"
  Unit of measure: "µM"
  IC50: 7.63

(I) COC(=O)c1ccc2c(c1)NC(=O)/C2=C(\Nc1ccc2c(c1)c(CN1CCN(C)CC1)cn2C)c1ccccc1
(II) CCn1c(C(=O)N2CCN(C)CC2)cc2cc(N/C(=C3\C(=O)Nc4cc(C(=O)OC)ccc43)c3ccccc3)ccc21
(III) COC(=O)c1ccc2c(c1)NC(=O)/C2=C(\Nc1ccc2[nH]c(CN3CCN(C)CC3)cc2c1)c1ccccc1
(IV) COC(=O)c1ccc2c(c1)NC(=O)/C2=C(\Nc1ccc(N(C)C(=O)CN2CCN(C)CC2)cc1)c1ccccc1
Q. Order field: IC50 | Direction: descending (largest first) Ranked list of labels, please, in the requested order.
A. III, IV, II, I
(III: 39.1 µM, IV: 22.6 µM, II: 11.9 µM, I: 6.15 µM)

###

- System: A549
- Assay comment: Antiproliferative activity against human A549 cells after 72 hrs by MTT assay
- Assay type: functional, cell-based
- Applied conditions: A549, 72 h
Quantity: IC50 (µM)

// below: answered molecules
- Chem smiles: "COC(=O)c1ccc2c(c1)NC(=O)/C2=C(\\Nc1ccc2[nH]cc(CN3CCN(C)CC3)c2c1)c1ccccc1"
  Quantity: "IC50"
  Measured value: 7.4
- Chem smiles: "COC(=O)c1ccc2c(c1)NC(=O)/C2=C(\\Nc1ccc2c(c1)nc(CN1CCN(C)CC1)n2C)c1ccccc1"
  Quantity: "IC50"
  Measured value: 40.5

(I) COC(=O)c1ccc2c(c1)NC(=O)/C2=C(\Nc1ccc2[nH]c(C(=O)N3CCN(C)CC3)cc2c1)c1ccccc1
(II) COC(=O)c1ccc2c(c1)NC(=O)/C2=C(\Nc1ccc2c(c1)c(CN(C)C)cn2C)c1ccccc1
Q. From the recorded data, which exceeds the other in IC50: I or II ? Please reply using the label of the selected record.
A. II

###

- Target under test: Vascular endothelial growth factor receptor 2 (Homo sapiens, UniProt P35968)
- Sequence (P35968 whole entry): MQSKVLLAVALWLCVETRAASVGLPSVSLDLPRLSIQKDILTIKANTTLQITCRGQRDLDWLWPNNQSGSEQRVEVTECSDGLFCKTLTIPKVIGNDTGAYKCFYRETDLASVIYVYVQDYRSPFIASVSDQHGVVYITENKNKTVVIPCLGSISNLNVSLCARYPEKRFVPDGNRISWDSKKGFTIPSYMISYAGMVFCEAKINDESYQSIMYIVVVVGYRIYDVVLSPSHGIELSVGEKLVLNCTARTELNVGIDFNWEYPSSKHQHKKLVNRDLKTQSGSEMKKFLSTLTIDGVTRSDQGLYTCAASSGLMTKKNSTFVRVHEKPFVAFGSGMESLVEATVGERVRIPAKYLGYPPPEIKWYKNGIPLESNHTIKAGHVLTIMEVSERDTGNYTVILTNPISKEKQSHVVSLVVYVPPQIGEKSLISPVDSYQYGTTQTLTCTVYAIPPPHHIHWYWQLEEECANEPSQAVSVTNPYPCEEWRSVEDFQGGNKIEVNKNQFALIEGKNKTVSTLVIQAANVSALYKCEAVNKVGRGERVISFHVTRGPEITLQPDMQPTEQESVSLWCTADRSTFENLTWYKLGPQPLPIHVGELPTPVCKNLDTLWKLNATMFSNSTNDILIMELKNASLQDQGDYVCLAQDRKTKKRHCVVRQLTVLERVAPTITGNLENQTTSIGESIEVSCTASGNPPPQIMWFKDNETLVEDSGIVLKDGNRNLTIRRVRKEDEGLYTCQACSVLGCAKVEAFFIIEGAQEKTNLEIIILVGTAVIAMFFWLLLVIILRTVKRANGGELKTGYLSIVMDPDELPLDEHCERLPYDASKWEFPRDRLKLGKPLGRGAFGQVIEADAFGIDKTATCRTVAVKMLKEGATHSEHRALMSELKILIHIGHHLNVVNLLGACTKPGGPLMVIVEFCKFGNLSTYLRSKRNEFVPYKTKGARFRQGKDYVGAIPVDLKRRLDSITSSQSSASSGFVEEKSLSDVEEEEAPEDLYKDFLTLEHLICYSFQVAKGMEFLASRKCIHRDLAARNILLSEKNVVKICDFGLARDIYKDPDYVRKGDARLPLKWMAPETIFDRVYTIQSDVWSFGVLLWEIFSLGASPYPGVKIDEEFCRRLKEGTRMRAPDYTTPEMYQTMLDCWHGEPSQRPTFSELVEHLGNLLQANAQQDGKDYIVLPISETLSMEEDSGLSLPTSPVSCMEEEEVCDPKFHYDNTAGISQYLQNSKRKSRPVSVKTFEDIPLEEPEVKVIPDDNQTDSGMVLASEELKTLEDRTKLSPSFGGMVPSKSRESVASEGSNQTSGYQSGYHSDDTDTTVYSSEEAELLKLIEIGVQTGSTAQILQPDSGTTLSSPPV
pIC50: −log10 of the molar value.
Quantity: pIC50

- Chem smiles: "COC(=O)c1ccc2c(c1)NC(=O)/C2=C(\\Nc1ccc2nc(CN(C)C)oc2c1)c1ccccc1"
  pIC50: "< 6.00"

For the next question, use this compound.
Q. Could you please provide reported pIC50 for COC(=O)c1ccc2c(c1)NC(=O)/C2=C(\Nc1ccc2[nH]c(C(=O)N(C)C)cc2c1)c1ccccc1 ? Thanks!
A. < 6.00

###

- Target under test: Platelet-derived growth factor receptor beta (Homo sapiens)
- Sequence (P09619 whole entry): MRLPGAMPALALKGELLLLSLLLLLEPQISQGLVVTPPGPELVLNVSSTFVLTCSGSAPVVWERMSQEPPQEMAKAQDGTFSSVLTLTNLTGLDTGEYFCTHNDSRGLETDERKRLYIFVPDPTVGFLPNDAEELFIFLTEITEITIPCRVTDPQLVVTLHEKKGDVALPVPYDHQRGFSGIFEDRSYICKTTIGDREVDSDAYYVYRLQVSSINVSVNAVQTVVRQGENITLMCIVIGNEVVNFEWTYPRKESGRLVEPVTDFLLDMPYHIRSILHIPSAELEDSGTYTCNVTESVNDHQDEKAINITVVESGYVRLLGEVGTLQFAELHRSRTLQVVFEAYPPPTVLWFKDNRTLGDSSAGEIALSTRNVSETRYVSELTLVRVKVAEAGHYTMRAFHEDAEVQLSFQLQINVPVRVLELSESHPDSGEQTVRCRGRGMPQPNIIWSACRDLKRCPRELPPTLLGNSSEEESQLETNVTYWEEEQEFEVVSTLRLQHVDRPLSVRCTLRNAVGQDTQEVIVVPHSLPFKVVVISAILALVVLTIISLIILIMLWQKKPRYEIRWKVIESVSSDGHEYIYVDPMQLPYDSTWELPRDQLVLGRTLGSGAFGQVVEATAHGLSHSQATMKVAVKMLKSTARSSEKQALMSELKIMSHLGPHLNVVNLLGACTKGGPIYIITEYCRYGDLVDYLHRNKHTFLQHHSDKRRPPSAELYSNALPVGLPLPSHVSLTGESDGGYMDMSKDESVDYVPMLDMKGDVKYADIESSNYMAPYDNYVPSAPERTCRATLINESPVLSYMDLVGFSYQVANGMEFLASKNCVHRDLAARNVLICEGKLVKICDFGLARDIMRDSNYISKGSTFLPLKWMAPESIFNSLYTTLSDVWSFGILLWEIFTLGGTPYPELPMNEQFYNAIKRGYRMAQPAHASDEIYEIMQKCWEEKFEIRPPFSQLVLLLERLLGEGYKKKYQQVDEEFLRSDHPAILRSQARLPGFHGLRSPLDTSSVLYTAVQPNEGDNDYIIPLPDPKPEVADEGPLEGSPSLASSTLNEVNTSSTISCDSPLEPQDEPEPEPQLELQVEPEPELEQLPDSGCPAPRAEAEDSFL
Quantity: IC50 (nM)

- Chem smiles: "COC(=O)c1ccc2c(c1)NC(=O)/C2=C(\\Nc1ccc2[nH]c(C(=O)N3CCN(C)CC3)cc2c1)c1ccccc1"
  IC50, nM: 22

(P) COC(=O)c1ccc2c(c1)NC(=O)/C2=C(\Nc1ccc2c(c1)cc(C(=O)N1CCN(C)CC1)n2C)c1ccccc1
(Q) COC(=O)c1ccc2c(c1)NC(=O)/C2=C(\Nc1ccc2c(c1)c(CN(C)C)cn2C)c1ccccc1
(R) COC(=O)c1ccc2c(c1)NC(=O)/C2=C(\Nc1ccc2[nH]cc(CN3CCN(C)CC3)c2c1)c1ccccc1
Q. Order the records by IC50, with each subsequent value no larger than the one before. // rank by listing labels in the order requested
A. R, Q, P

###

- Target under test: Fibroblast growth factor receptor 1 (Homo sapiens, UniProt P11362)
- Sequence (P11362 whole entry): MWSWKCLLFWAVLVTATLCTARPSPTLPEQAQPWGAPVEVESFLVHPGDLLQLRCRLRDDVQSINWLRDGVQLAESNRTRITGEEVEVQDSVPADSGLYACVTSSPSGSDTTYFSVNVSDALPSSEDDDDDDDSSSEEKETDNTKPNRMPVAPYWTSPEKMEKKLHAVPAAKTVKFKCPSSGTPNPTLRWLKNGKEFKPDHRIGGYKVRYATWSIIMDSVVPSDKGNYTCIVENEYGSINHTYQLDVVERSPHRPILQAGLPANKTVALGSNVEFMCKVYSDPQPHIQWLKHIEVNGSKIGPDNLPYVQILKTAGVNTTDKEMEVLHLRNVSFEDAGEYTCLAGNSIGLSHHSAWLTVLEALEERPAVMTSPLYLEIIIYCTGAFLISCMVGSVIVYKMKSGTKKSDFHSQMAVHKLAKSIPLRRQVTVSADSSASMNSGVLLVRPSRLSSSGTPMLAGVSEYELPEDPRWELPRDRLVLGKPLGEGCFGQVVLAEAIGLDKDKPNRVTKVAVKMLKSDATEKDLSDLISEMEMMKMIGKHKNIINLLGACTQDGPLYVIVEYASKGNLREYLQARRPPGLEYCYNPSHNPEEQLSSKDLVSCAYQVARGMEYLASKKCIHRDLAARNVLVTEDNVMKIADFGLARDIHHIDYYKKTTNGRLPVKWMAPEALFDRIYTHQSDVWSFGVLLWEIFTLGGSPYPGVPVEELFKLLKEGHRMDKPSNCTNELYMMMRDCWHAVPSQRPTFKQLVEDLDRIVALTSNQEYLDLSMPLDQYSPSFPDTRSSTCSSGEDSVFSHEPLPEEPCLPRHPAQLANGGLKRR
Quantity: pIC50
The scale used: pIC50 is minus the common logarithm of the concentration in molar units.

Q. Recall the reported pIC50 of COC(=O)c1ccc2c(c1)NC(=O)/C2=C(\Nc1ccc2[nH]c(C(=O)N3CCN(C)CC3)cc2c1)c1ccccc1 on Fibroblast growth factor receptor 1 (Homo sapiens, UniProt P11362) and write it down.
A. 5.82

###

Dear all, this message contains IC50 results, target or system Platelet-derived growth factor receptor beta (Homo sapiens, UniProt P09619).
Quantity: IC50 (nM)

- Chem smiles: "COC(=O)c1ccc2c(c1)NC(=O)/C2=C(\\Nc1ccc2[nH]c(CN3CCN(C)CC3)cc2c1)c1ccccc1"
  Target under test: "Platelet-derived growth factor receptor beta (Homo sapiens, UniProt P09619)"
  Unit of measure: "nM"
  IC50: 92.7
- Chem smiles: "CCn1cc(CN(C)C)c2cc(N/C(=C3\\C(=O)Nc4cc(C(=O)OC)ccc43)c3ccccc3)ccc21"
  Target under test: "Platelet-derived growth factor receptor beta (Homo sapiens, UniProt P09619)"
  Unit of measure: "nM"
  IC50: 34.3
- Chem smiles: "COC(=O)c1ccc2c(c1)NC(=O)/C2=C(\\Nc1ccc2c(c1)c(CN(C)C)cn2C(C)C)c1ccccc1"
  Target under test: "Platelet-derived growth factor receptor beta (Homo sapiens, UniProt P09619)"
  Unit of measure: "nM"
  IC50: 49.2

(a) COC(=O)c1ccc2c(c1)NC(=O)/C2=C(\Nc1ccc2[nH]cc(CN(C)C)c2c1)c1ccccc1
(b) CCn1c(C(=O)N2CCN(C)CC2)cc2cc(N/C(=C3\C(=O)Nc4cc(C(=O)OC)ccc43)c3ccccc3)ccc21
Q. Returns: the argument ( a or b ) having the larger IC50. Indicate your choice by writing its label.
A. a
(a: 60.7 nM, b: 39 nM)
